Test system: Acinetobacter baumannii ATCC17961
Assay: Antimicrobial susceptibility testing: 90% growth inhibitory concentration (IC90) determination, Iso-Sensitest broth
Type: cell-based
Details: Acinetobacter baumannii, ATCC17961, 90% growth inhibitory concentration, Acinetobacter baumannii ATCC17961, Iso-Sensitest broth; read-out: ATCC 17961 IC90
Procedure: The in vitro antimicrobial activity of the compounds was determined according to the following procedure: The assay used a 10-points Iso-Sensitest broth medium to measure quantitatively the in vitro activity of the compounds against Acinetobacter baumannii ATCC17978 or ATCC17961. […] Bacterial cell growth was determined with the measurement of optical density at k=600 nm each 20 minutes over a time course of 16 h. […]
Structures can show the parent of a compound that is named as a salt.
Provide the reported IC90 of each item.
Quote the value and follow it with the unit of measurement.

**Query** Reported IC90 for COc1ccc(-c2cnc(C(=O)Nc3ccc(C(=O)N4CCC(C(=O)NC[C@@H]5CCNC5)CC4)c(Cl)c3)n2C)c(F)c1F [Example 55, formate] : what is it?
**Result** 50 nM

**Query** Try this compound too: Cc1cc(NC(=O)c2ncc(-c3ccc(OCC#N)c(F)c3F)n2C)ccc1C(=O)N1CCC(C(=O)N2CCO[C@H](CN)C2)CC1 [Example 83, 2,2,2-trifluoroacetate]
**Result** 170 nM

**Query** Try this compound too: CCc1cc(NC(=O)c2ncc(-c3ccc(OC)c(F)c3F)n2C)ccc1C(=O)N1CCC(C(=O)NCCN)CC1 [Example 100]
**Result** 340 nM

**Query** Try this compound too: COc1ccc(-c2cnc(C(=O)Nc3ccc(C(=O)N4CCN(C(=O)CCN)CC4)c(Cl)c3)n2C)c(F)c1F [Example 123, formate]
**Result** 40 nM

**Query** Try this compound too: Cn1c(-c2ccc(OC(F)F)c(F)c2F)cnc1C(=O)Nc1ccc(C(=O)N2CCN(C(=O)C3CCNCC3)CC2)c(Cl)c1 [Example 249, formate]
**Result** 30 nM

**Query** Try this compound too: COc1ccc(-c2cnc(C(=O)Nc3ccc(C(=O)N4CCN(C(=O)C5CCNCC5)CC4)c(Cl)c3)n2C)c(F)c1F [Example 265, hydrochloride]
**Result** 70 nM
